Entries and their growth values follow.
Tested on: RPMI-8226 leukemia
method.description: NCI-60 one-dose screen, 48 h (100 = growth as untreated, 0 = no growth, -100 = all killed)
run.conditions: 10 µM
This is part of a sample that, as a whole, favours compounds with a hit. Of some 83,000 tested, about 20% had one in any assay.

| compound | endpoint.unit | growth |
| --- | --- | --- |
| COc1cc2c3c(n(CCCn4ccnc4)c(=O)c2cc1OC)-c1nc2c(cc1C3=O)OCO2 | % | 44.3 |
| CCCCCCCCCCCCCCCCCCCC(=O)NCCc1c[nH]c2ccc(O)cc12 | % | 28.2 |
| O=C1NC(=NC23CC4CC(CC(C4)C2)C3)N/C1=C\c1ccc2ncoc2c1 | % | -4.5 |
| CC(=O)c1cc(C(=O)c2ccc3c(c2)NC(=O)CO3)n2ccc3ccccc3c12 | % | 62.7 |
| CN1C(=O)/C(=C/c2ccc3ncsc3c2)NC1=NC12CC3CC(CC(O)(C3)C1)C2 | % | -7.67 |
| CCN1CCN(Cc2ccc(NC(=O)c3cccc(-n4cc(-c5ccc(NC(C)=O)nc5)nn4)c3)cc2C(F)(F)F)CC1 | % | 80.6 |
| N#C/C(=C\c1ccc(N(c2ccccc2)c2ccccc2)cc1)C(N)=O | % | 19.8 |
| Cc1ccc(-c2nc(Nc3ccc(C)c(S(N)(=O)=O)c3)c3ccccc3n2)cc1 | % | 87 |
| CCCCSc1nc(Nc2ccc(/C(C)=N/NC(N)=S)cc2)c(C#N)c(-c2ccc(F)cc2)n1 | % | 58.2 |
| COc1ccc(-c2c(N)c(=O)n(C)c3ccccc23)cc1 | % | 25.1 |
| CC(=O)OC[C@@]1(C)C2CC[C@]3(C)C(CC=C4C5CC(C)(C)CC[C@]5(C(=O)Nc5ccccc5)CC[C@]43C)[C@@]2(C)C[C@@H](OC(C)=O)[C@@H]1OC(C)=O (some centres not stated) | % | 10.7 |
| Cc1ccc(-c2nc3ccc(C(=O)N=Nc4c(O)[nH]c5ccc(Cl)cc45)cc3[nH]2)cc1 | % | 32.6 |
| O=C(CS(=O)(=O)c1oc(-c2ccc(Cl)cc2)nc1S(=O)(=O)c1ccc(Cl)cc1)N1CCOCC1 | % | -9.59 |
| O=C(N/N=C/c1ccc(-c2cccc([N+](=O)[O-])c2)o1)c1[nH]c2ccc(Br)cc2c1-c1ccccc1 | % | 12 |
| CC(=O)Nc1ccc(-c2cn(-c3cccc(C(=O)Nc4cccc(OC(F)(F)F)c4)c3)nn2)cn1 | % | 96 |
| O=C(NO)c1ccc(-c2nc3ccc4[nH]ncc4c3c3c2CCCC3)cc1 | % | -9.23 |
| C/C(=N\N=C\c1ccc(Cl)c([N+](=O)[O-])c1)c1ccc2c(c1)Nc1ccccc1S2 | % | 33.3 |
| O=C1c2ccccc2C(=O)c2c1c(C(=O)c1ccc(Cl)cc1)n1c2ccc2c3ccccc3ccc21 | % | 101 |
| COc1ccc(/C=N/N=C(\C)c2ccc3c(c2)Nc2ccccc2S3)cc1O | % | 28.3 |
| Cc1ccc(CSc2nc(Cl)c(C#N)c(-c3ccc(F)cc3)n2)cc1 | % | 58.5 |
| COc1ccc2[nH]c(O)c(N=NC(=O)COc3ccc(NC(=O)Nc4ccc(Cl)c(Cl)c4)cc3)c2c1 | % | 11.1 |
| COc1cccc(-c2ccnc(/N=C(\N)Nc3ccc(S(=O)(=O)Nc4nc(C)cc(C)n4)cc3)n2)c1 | % | 90.1 |
| CCOc1ccc2ncc(C#Cc3cncc(C(=O)Nc4ccc(CN5CCN(C)CC5)c(C(F)(F)F)c4)c3)n2n1 | % | -13.3 |
| O=C(NO)c1ccc(Cn2ccc3c(NCc4ccccc4)ncnc32)cc1 | % | 17.2 |
| Cc1nc2c(cnn2-c2ccccc2)c(=O)n1-c1ccc(NC(=O)c2ccc(F)cc2)cc1 | % | 35.2 |
| Nc1nnc(-c2c[nH]c3ncccc23)c(-c2c[nH]c3ccc(Br)cc23)n1 | % | 38.7 |
| Cc1ccc(NC(=O)NCn2c(=O)[nH]c3ccccc3c2=O)cc1 | % | 92.7 |
| COC1=C[C@@]23CCC(=O)N2CCc2cc4c(cc2[C@H]3[C@H]1OC(=O)C(C)(C)O)OCO4 | % | 92.3 |
| N#Cc1c(-c2ccc(F)cc2)nc(SCc2ccc(F)cc2)nc1N1CCOCC1 | % | 92.7 |
| COc1ccc([C@H]2C(C(=O)c3ccc(Cl)cc3)C3(N[C@@H]2c2ccccc2)C(=O)Nc2ccc(Br)cc23)cc1 (some centres not stated) | % | -10.6 |
| Cc1ccc(-c2nc(Nc3ccccc3C(=O)O)c3ccccc3n2)cc1 | % | 17.1 |
| O=C(CSc1nnc(-c2c[nH]c3ccccc23)n1-c1ccccc1)Nc1ccc(C(=O)/C=C/c2ccc(Br)cc2)cc1 | % | 7.63 |
| COc1cc2c(cc1OC)CN(CCCCOc1cc(O)c3c(=O)cc(-c4ccccc4)oc3c1)CC2 | % | 24.1 |
| CC(C)c1ccc(C(=O)Nc2sc3c(c2C(N)=O)CCC(=O)C3=O)cc1 | % | 85 |
| COc1cc2c(cc1OC)/C(=C\c1sc(Nc3ccc(O)cc3)nc1O)C(C(=O)O)=N2 | % | 16.1 |
| Cc1ccc2nc3c(nc2c1)c1cc(I)ccc1n3CCN(C)C | % | 22 |
| Cc1ccc(/C=C(\C#N)n2nnc3c(F)cccc32)cc1 | % | 6.26 |
